All values here come from patent US8673848.

# targetOfAssay: T1, human APJ receptor (hAPJ) (human, UniProt P35414 1-380)
# T1 sequence (looked up): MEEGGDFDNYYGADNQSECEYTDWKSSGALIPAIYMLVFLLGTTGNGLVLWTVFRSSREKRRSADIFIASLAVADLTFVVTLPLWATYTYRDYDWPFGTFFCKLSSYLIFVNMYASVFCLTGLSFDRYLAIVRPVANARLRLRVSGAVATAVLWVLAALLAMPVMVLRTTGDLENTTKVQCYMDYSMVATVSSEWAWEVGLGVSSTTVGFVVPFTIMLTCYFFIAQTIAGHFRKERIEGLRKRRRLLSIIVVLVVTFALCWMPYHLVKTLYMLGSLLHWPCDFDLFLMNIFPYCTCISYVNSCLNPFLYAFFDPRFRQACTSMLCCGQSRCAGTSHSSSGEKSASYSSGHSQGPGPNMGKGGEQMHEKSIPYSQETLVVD
# procedureText: cell-based or functional assay
Bridges are numbered along the chain shown (N, C = ends). [ ]: non-standard residue; d: D form. Cha = N[C@@H](CC1CCCCC1)C(=O)O; pGlu = O=C1CC[C@@H](C(=O)O)N1; Nle = CCCC[C@H](N)C(=O)O; Inp = O=C(O)C1CCNCC1
# binarize hAPJ Ca2+ Flux EC50: threshold 2 nM inclusive, high side T, low side F

1) [pGlu]RPR[Cha]CHKGP[Cha]CF-OH (disulfide 6-12; SMILES N=C(N)NCCC[C@H](NC(=O)[C@@H]1CCCN1C(=O)[C@H](CCCNC(=N)N)NC(=O)[C@@H]1CCC(=O)N1)C(=O)N[C@@H](CC1CCCCC1)C(=O)N[C@H]1CSSC[C@@H](C(=O)N[C@@H](Cc2ccccc2)C(=O)O)NC(=O)[C@H](CC2CCCCC2)NC(=O)[C@@H]2CCCN2C(=O)CNC(=O)[C@H](CCCCN)NC(=O)[C@H](Cc2c[nH]cn2)NC1=O) [Example 14: pE-R-P-R-Cha-C-H-K-G-P-Cha-C-F-OH] ... T
2) [pGlu]RPELCHKGP[Nle]CF-OH (disulfide 6-12; SMILES CCCC[C@@H]1NC(=O)[C@@H]2CCCN2C(=O)CNC(=O)[C@H](CCCCN)NC(=O)[C@H](Cc2c[nH]cn2)NC(=O)[C@@H](NC(=O)[C@H](CC(C)C)NC(=O)[C@H](CCC(=O)O)NC(=O)[C@@H]2CCCN2C(=O)[C@H](CCCNC(=N)N)NC(=O)[C@@H]2CCC(=O)N2)CSSC[C@@H](C(=O)N[C@@H](Cc2ccccc2)C(=O)O)NC1=O) [Example 40: pE-R-P-E-L-C-H-K-G-P-Nle-C-F-OH] ... T
3) [pGlu]EPRLCHKGP[Nle]CF-OH (disulfide 6-12; SMILES CCCC[C@@H]1NC(=O)[C@@H]2CCCN2C(=O)CNC(=O)[C@H](CCCCN)NC(=O)[C@H](Cc2c[nH]cn2)NC(=O)[C@@H](NC(=O)[C@H](CC(C)C)NC(=O)[C@H](CCCNC(=N)N)NC(=O)[C@@H]2CCCN2C(=O)[C@H](CCC(=O)O)NC(=O)[C@@H]2CCC(=O)N2)CSSC[C@@H](C(=O)N[C@@H](Cc2ccccc2)C(=O)O)NC1=O) [Example 32: pE-E-P-R-L-C-H-K-G-P-Nle-C-F-OH] ... T
4) [pGlu]RDRLCHKGP[Nle]CF-OH (disulfide 6-12; SMILES CCCC[C@@H]1NC(=O)[C@@H]2CCCN2C(=O)CNC(=O)[C@H](CCCCN)NC(=O)[C@H](Cc2c[nH]cn2)NC(=O)[C@@H](NC(=O)[C@H](CC(C)C)NC(=O)[C@H](CCCNC(=N)N)NC(=O)[C@H](CC(=O)O)NC(=O)[C@H](CCCNC(=N)N)NC(=O)[C@@H]2CCC(=O)N2)CSSC[C@@H](C(=O)N[C@@H](Cc2ccccc2)C(=O)O)NC1=O) [Example 35: pE-R-D-R-L-C-H-K-G-P-Nle-C-F-OH] ... T
5) [pGlu]RPRLCHKDP[Nle]CF-OH (disulfide 6-12; SMILES CCCC[C@@H]1NC(=O)[C@@H]2CCCN2C(=O)[C@H](CC(=O)O)NC(=O)[C@H](CCCCN)NC(=O)[C@H](Cc2c[nH]cn2)NC(=O)[C@@H](NC(=O)[C@H](CC(C)C)NC(=O)[C@H](CCCNC(=N)N)NC(=O)[C@@H]2CCCN2C(=O)[C@H](CCCNC(=N)N)NC(=O)[C@@H]2CCC(=O)N2)CSSC[C@@H](C(=O)N[C@@H](Cc2ccccc2)C(=O)O)NC1=O) [Example 39: pE-R-P-R-L-C-H-K-D-P-Nle-C-F-OH] ... T
6) [pGlu]RPRL[dC]HKGP[Nle]CF-OH (disulfide 6-12; SMILES CCCC[C@@H]1NC(=O)[C@@H]2CCCN2C(=O)CNC(=O)[C@H](CCCCN)NC(=O)[C@H](Cc2c[nH]cn2)NC(=O)[C@H](NC(=O)[C@H](CC(C)C)NC(=O)[C@H](CCCNC(=N)N)NC(=O)[C@@H]2CCCN2C(=O)[C@H](CCCNC(=N)N)NC(=O)[C@@H]2CCC(=O)N2)CSSC[C@@H](C(=O)N[C@@H](Cc2ccccc2)C(=O)O)NC1=O) [Example 53: pE-R-P-R-L-c-H-K-G-P-Nle-C-F-OH] ... F
7) H-[Inp]RPRLCHKGP[Nle]CF-OH (disulfide 6-12; SMILES CCCC[C@@H]1NC(=O)[C@@H]2CCCN2C(=O)CNC(=O)[C@H](CCCCN)NC(=O)[C@H](Cc2c[nH]cn2)NC(=O)[C@@H](NC(=O)[C@H](CC(C)C)NC(=O)[C@H](CCCNC(=N)N)NC(=O)[C@@H]2CCCN2C(=O)[C@H](CCCNC(=N)N)NC(=O)C2CCNCC2)CSSC[C@@H](C(=O)N[C@@H](Cc2ccccc2)C(=O)O)NC1=O) [Example 18: H-Isn-R-P-R-L-C-H-K-G-P-Nle-C-F-OH] ... F
